# maps each entry to its inhibition
target: Prostaglandin E2 receptor EP2 subtype (Homo sapiens); test: blockers of PGE2-driven EP2 cAMP signalling – TR-FRET cAMP, C6 glioma cells, primary screen (AID 1422); settings: C6 glioma cells expressing human EP2, cAMP TR-FRET; at 25 µM; stronger effect = higher value; cells stimulated with saturating PGE2;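 note: rat C6 glioma host cells with rolipram phosphodiesterase inhibitor present; the protocol text gives 20 µM as final concentration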
Hit rate of the full screen: of about 260,000 compounds, about 1,300 (0.5%) were called active. The full list was thinned out, with actives kept by preference.
Form entry: value (%) — number only.

Here is how some molecules turned out for inhibition.
| MOLECULE | REPORTED_ENDPOINT | RECORDED_NUMBER |
| --- | --- | --- |
| COc1ccccc1NC(=O)CSc1ncnc2sc3c(c12)CCC(C)C3 (stereo unspecified) | inhibition | 15.3 |
| COc1ccccc1OCC(O)Cn1c(=N)n(C)c2ccccc21 (stereo unspecified) | inhibition | 8.65 |
| CC(C)(C)NCC[C@@H](O)c1cc(C(F)(F)F)nc2c(C(F)(F)F)cccc12 | inhibition | 48.9 |
| COc1ccc(C(c2nnnn2CC2CCCO2)N2CCN(C3CCCCC3)CC2)cc1 (stereo unspecified) | inhibition | 1.12 |
| COc1cc(NC(=O)CSc2nnc3c(n2)[nH]c2ccccc23)cc(OC)c1 | inhibition | 9.57 |

Given item CCCC(NC(=O)c1csc(C(C)=O)c1)c1ccc2c(c1)OCCO2 (stereo unspecified) , the value recorded as its inhibition is 9.91

* * *

target: Prostaglandin E2 receptor EP2 subtype (Homo sapiens); experiment: blockers of PGE2-driven EP2 cAMP signalling – TR-FRET cAMP, C6 glioma cells, primary screen (AID 1422); conditions: C6 glioma cells expressing human EP2, cAMP TR-FRET; at 25 µM; stronger effect = higher value; cells stimulated with saturating PGE2
The campaign covered roughly 260,000 compounds. About 1,300 (0.5%) were called active. This is one part of a sample in which actives are shown more often than they occur.
Recorded inhibition by entry
The reply should contain only the number, in %.

Take a look at these entries with their results.
| SMILES_ENTRY | SYSTEM | READING_UNIT | inhibition |
| --- | --- | --- | --- |
| Clc1ccc(Nc2ncnc3c2nnn3Cc2ccccc2)cc1 | Prostaglandin E2 receptor EP2 subtype (Homo sapiens) | % | 7.31 |
| Fc1ccc2[nH]c3c(N4CCSCC4)ncnc3c2c1 | Prostaglandin E2 receptor EP2 subtype (Homo sapiens) | % | 59.2 |
| CS(=O)(=O)c1ccc(Cl)c(NC(=O)Nc2ccccc2)c1 | Prostaglandin E2 receptor EP2 subtype (Homo sapiens) | % | 6.72 |
| CC(=O)Nc1cc(C(=O)O)ccc1S(=O)(=O)c1ccc(Cl)cc1 | Prostaglandin E2 receptor EP2 subtype (Homo sapiens) | % | 5.25 |
| COc1ccc(N(CC(=O)N2CCN(c3ccc(F)cc3)CC2)S(C)(=O)=O)cc1 | Prostaglandin E2 receptor EP2 subtype (Homo sapiens) | % | 6.08 |

Kindly review the next compound as well.
Given the compound COC(=O)c1c(NC(=O)c2cccc(C)c2)sc(C(=O)Nc2cccc(OC)c2)c1C and test system Prostaglandin E2 receptor EP2 subtype (Homo sapiens), the measured inhibition is 7.04

* * *

target: Prostaglandin E2 receptor EP2 subtype (Homo sapiens); assay: blockers of PGE2-driven EP2 cAMP signalling – TR-FRET cAMP, C6 glioma cells, primary screen (AID 1422); settings: C6 glioma cells expressing human EP2, cAMP TR-FRET; at 25 µM; stronger effect = higher value; cells stimulated with saturating PGE2
Out of some 260,000 compounds screened, about 1,300 (0.5%) were called active. This is one part of a sample in which actives are shown more often than they occur.
REPORTED_ENDPOINT: inhibition (%)
Write the value in % as a bare number.

Field: example entries. Status: answers known.
| COMPOUND | inhibition (%) |
| --- | --- |
| COc1ccccc1NC(=O)C1=C(C)NC2=C(C(=O)CCC2)C1c1ccc(C)o1 (configuration not stated) | 2.07 |
| CCOc1ccc2nc(SCC(=O)OC(C)C)c(C#N)cc2c1 | 10.9 |
| Cc1cccc2cc(CN(Cc3ccco3)S(=O)(=O)c3cccc4nsnc34)c(=O)[nH]c12 | 24.1 |
| O=c1[nH]c2ccccc2n2c(-c3ccccc3)nnc12 | 82.1 |
| COc1ccccc1N=C1Sc2nc3cc4c(cc3cc2CN1CC1CCCO1)OCO4 (configuration not stated) | 9.09 |

inhibition reported for this compound COc1ccc2[nH]c(=O)c(CN(CCCN(C)C)C(=S)Nc3ccccc3)cc2c1 : 9.95

The recorded inhibition for CC(=O)Nc1ccc(-c2csc(NC=C3C(=O)OC(C)(C)OC3=O)n2)cc1 is 2.63

Lab book: inhibition of O=C(Nn1c(-c2ccccc2)nc2ccccc2c1=O)c1ccc([N+](=O)[O-])cc1 noted as 6.91

Form: compound = CCc1cccc2cc3c(N)c(C(=O)Nc4cc(OC)ccc4OC)sc3nc12 ; inhibition = 5.34

* * *

biological target: Prostaglandin E2 receptor EP2 subtype (Homo sapiens); experiment: blockers of PGE2-driven EP2 cAMP signalling – TR-FRET cAMP, C6 glioma cells, primary screen (AID 1422); settings: C6 glioma cells expressing human EP2, cAMP TR-FRET; at 25 µM; stronger effect = higher value; cells stimulated with saturating PGE2;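 note: rat C6 glioma host cells with rolipram phosphodiesterase inhibitor present; the protocol text gives 20 µM as final concentration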
About 1,300 (0.5%) of roughly 260,000 compounds were called active. The sample holds actives, similar compounds and a random draw of the others, so the mix is not that of the screen.
# inhibition per entry
# unit: % | format: bare number

The following molecules have reported results that may help.
| MOLECULE | RECORDED_NUMBER |
| --- | --- |
| Cc1ccc2c(c1)C1CN(C)CCC1N2C(=S)Nc1ccc(Cl)cc1Cl (stereo not given) | 15.3 |
| CCOC(=O)CNC(=O)CSc1nnnn1-c1cc(C)ccc1C | -1.57 |
| c1ccc2c(c1)OCC(CNc1ncnc3nc[nH]c13)O2 (stereo not given) | 10.3 |
| Cc1ncc([N+](=O)[O-])n1Cc1nnc(N)s1 | 11.5 |
| CCc1cc2cc3c(cc2nc1SCC(=O)Nc1ccccc1Br)OCCO3 | 8.66 |
| CC1CCN(C(=O)CSc2nc3ccccc3n2Cc2ccccc2)CC1 | 11.6 |
| C/C(N[O-])=C(\C)[N+]([O-])=[Co].CC(=N\[O-])/C(C)=N/[O-].[CH2-]CCN1CCOCC1.c1ccncc1 | 42.1 |
| COC(=O)c1ccc(-n2nnnc2SCC(=O)NCc2cccs2)cc1 | 10.1 |
| Cc1ccc2c(c1)C1CN(C)CCC1N2C(=O)c1ccccc1NS(=O)(=O)c1ccc(F)cc1C (stereo not given) | 8.83 |

# context switch: different molecule, same inhibition
Consider CCOC(=O)c1c(-c2ccc(C)cc2C)csc1NC(=O)CSc1nnnn1C . Its measured inhibition is 44.2

* * *

We begin with a simple list: items and their reported inhibition.
molecular target: Prostaglandin E2 receptor EP2 subtype (Homo sapiens); assay: blockers of PGE2-driven EP2 cAMP signalling – TR-FRET cAMP, C6 glioma cells, primary screen (AID 1422); settings: C6 glioma cells expressing human EP2, cAMP TR-FRET; at 25 µM; stronger effect = higher value; cells stimulated with saturating PGE2;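 note: rat C6 glioma host cells with rolipram phosphodiesterase inhibitor present; the protocol text gives 20 µM as final concentration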
Out of some 260,000 compounds screened, about 1,300 (0.5%) were called active. The sample holds actives, similar compounds and a random draw of the others, so the mix is not that of the screen.
Write down the numeric answer in % and omit the unit.

| MOLECULE | READING_UNIT | inhibition |
| --- | --- | --- |
| O=C(NC1CCN(Cc2ccccc2)CC1)c1c(F)cccc1F | % | 2.64 |
| CN(C)S(=O)(=O)c1ccc(S(=O)(=O)N2CCN(c3ccccc3F)CC2)cc1 | % | 15.4 |
| COc1ccc(-c2cc(C(F)(F)F)nc(SCC(=O)N3CCCCC3C)n2)cc1 (centres undefined) | % | 52.4 |

Lab note: CCc1nnc(NC(=O)CSc2nnnn2-c2ccc(F)cc2)s1 gave inhibition of 7.48

* * *

Here the recorded inhibition is given for each entry.
target: Prostaglandin E2 receptor EP2 subtype (Homo sapiens); experiment: blockers of PGE2-driven EP2 cAMP signalling – TR-FRET cAMP, C6 glioma cells, primary screen (AID 1422); conditions: C6 glioma cells expressing human EP2, cAMP TR-FRET; at 25 µM; stronger effect = higher value; cells stimulated with saturating PGE2;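 note: rat C6 glioma host cells with rolipram phosphodiesterase inhibitor present; the protocol text gives 20 µM as final concentration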
Out of some 260,000 compounds screened, about 1,300 (0.5%) were called active. For the sample, actives were picked, then their nearest neighbours and some compounds at random.
Give the number; % is assumed, so skip it.

Answered examples (3):
| COMPOUND | SYSTEM | READING_UNIT | inhibition |
| --- | --- | --- | --- |
| Cc1ccc(NC(=O)CSc2nnc(-c3ccncc3)n2C2CCCCC2)c(C)c1 | Prostaglandin E2 receptor EP2 subtype (Homo sapiens) | % | 15.8 |
| CC(NC(=O)Nc1ccccc1)C(c1cccs1)N1CCN(c2ccccc2)CC1 (stereo not drawn) | Prostaglandin E2 receptor EP2 subtype (Homo sapiens) | % | 6.9 |
| COc1ccccc1CNC(=O)C1CCN(c2cnccn2)CC1 | Prostaglandin E2 receptor EP2 subtype (Homo sapiens) | % | 9.64 |

// O=C(O)C1CCN(C(=O)OCc2ccccc2)CC1 : inhibition value = 7.11

Record COc1cc(/C=N/Nc2nc3ccccc3s2)ccc1O , field inhibition: 16.7

For reference, reported inhibition for CN(C)CCCNC(=O)C(=O)Nc1ccc2c(c1)OCO2 stands at 13.4

Lab book: inhibition of COc1ccccc1CC(=O)Nc1ccc([N+](=O)[O-])cc1OC noted as 2.1

Record Cc1ccccc1NC(=S)Nc1cccc([N+](=O)[O-])c1 , field inhibition: 10.2
